- study.system: hNaV1.8 (Homo sapiens, UniProt Q9Y5Y9)
- Sequence (Q9Y5Y9 whole entry): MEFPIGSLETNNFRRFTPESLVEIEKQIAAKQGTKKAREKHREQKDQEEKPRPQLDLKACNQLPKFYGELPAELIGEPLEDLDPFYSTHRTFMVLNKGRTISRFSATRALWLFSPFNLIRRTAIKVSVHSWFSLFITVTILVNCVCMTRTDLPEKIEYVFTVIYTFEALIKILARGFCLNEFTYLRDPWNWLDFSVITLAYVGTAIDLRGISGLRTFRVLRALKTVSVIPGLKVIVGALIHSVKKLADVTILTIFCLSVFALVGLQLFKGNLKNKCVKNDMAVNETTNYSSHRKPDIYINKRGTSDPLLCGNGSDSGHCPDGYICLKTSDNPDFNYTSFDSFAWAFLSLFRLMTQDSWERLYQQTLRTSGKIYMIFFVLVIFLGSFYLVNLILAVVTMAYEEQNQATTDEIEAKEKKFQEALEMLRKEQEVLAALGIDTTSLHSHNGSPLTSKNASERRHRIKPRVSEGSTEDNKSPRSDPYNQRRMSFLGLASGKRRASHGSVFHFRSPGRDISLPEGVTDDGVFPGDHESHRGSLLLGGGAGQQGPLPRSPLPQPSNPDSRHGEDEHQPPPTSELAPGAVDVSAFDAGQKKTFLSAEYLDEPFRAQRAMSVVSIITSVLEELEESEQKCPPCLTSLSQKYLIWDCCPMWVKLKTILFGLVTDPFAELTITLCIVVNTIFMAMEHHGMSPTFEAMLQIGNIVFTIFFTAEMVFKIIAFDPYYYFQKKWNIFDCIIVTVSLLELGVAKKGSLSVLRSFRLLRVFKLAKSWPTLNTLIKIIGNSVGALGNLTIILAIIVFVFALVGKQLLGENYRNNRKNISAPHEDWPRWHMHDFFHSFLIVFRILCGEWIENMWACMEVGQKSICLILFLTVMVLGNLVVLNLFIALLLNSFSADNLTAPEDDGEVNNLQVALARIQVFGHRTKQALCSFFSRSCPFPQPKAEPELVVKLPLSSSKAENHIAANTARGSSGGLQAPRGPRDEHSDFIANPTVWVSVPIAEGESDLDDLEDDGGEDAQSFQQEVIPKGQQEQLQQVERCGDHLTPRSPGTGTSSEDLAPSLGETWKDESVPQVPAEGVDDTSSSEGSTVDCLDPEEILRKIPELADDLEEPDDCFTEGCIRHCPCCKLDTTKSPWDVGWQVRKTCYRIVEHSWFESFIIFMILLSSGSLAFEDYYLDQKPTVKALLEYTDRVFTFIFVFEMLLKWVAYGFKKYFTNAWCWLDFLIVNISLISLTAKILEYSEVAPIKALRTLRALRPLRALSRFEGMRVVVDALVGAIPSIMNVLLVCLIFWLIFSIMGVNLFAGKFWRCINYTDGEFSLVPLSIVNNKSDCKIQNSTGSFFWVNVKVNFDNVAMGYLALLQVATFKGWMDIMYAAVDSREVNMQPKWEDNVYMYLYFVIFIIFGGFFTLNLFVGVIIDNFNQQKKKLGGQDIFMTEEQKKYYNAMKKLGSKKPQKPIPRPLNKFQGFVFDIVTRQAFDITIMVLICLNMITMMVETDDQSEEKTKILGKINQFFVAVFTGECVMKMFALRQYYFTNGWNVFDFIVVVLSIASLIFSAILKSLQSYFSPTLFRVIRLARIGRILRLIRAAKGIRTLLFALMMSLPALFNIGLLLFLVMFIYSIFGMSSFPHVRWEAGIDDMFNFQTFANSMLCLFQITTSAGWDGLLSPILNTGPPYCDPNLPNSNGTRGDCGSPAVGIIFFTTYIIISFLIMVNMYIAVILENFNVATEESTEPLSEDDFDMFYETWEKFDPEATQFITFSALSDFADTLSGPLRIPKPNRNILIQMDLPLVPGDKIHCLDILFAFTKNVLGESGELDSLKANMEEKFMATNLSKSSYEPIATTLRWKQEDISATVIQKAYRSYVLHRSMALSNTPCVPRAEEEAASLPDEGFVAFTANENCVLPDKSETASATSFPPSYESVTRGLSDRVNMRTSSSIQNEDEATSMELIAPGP
- experiment: cell-based
- reported.conditions: IC50 at hNaV1.8
pIC50: −log10 of the molar value.

compound: NC(=O)[C@@H]1CC[C@H](c2ccc(OCc3ccccc3F)cc2)N1 [CNV1014802]
pIC50: 5.22

Reference source: paper PMC4810223
